Record form. Attribute: pEC50. Fill in for each entry.
molecular target: LXRβ (Homo sapiens, UniProt P55055); construct: Co-transfection expression plasmids, comprising full-length LXRα (pCMX-h LXRα[…] or LXRβ (pCMX-hLXRβ)); experiment: Co-transfection assay (LXRE luciferase reporter), LXRβ; conditions: CV-1 cells transfected with pCMX-hLXRβ and LXREx1-Tk-Luciferase; 20 hours incubation
Sequence (P55055 whole entry): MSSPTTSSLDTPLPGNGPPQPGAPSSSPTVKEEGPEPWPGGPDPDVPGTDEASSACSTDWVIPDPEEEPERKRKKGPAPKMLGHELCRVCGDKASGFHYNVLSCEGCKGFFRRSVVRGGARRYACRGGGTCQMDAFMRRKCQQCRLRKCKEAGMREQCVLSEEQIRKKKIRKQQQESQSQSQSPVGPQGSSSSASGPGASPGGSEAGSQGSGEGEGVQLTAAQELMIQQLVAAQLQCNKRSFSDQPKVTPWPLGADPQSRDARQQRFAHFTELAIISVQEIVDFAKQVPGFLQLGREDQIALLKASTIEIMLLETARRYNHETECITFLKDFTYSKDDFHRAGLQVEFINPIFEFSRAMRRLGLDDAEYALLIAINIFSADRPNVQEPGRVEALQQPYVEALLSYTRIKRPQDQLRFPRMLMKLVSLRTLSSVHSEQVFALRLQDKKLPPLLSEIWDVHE
Sequence (P19793 whole entry partner): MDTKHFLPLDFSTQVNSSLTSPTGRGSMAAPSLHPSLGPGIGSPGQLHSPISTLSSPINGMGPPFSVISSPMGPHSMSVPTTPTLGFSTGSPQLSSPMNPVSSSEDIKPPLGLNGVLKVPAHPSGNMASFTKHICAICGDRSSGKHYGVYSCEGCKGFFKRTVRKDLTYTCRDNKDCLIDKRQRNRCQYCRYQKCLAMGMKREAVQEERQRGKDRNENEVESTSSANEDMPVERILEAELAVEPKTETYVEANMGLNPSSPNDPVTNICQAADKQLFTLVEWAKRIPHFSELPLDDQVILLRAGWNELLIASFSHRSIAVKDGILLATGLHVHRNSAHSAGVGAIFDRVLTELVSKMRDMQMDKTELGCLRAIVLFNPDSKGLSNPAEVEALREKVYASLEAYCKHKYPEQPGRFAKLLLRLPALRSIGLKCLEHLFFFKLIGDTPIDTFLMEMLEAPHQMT
Give bare numbers, as −log10 of the molar value.

Example results:
Smiles entry: CS(=O)(=O)c1cc(-c2cc(F)c(-n3cnc(C(F)(F)F)c3)c(-n3nncc3-c3ccc(OC(F)(F)F)cc3)c2)cc(F)c1CO
Recorded measurement: 5.75

Smiles entry: CCS(=O)(=O)c1cccc(-c2ccc(-n3cc(C(F)(F)F)nc3C)c(-n3nncc3C(F)(F)c3ccc(Cl)cc3)c2)c1
Recorded measurement: 6.69

Smiles entry: Cc1nc(C(F)(F)F)cn1-c1ccc(-c2cccc(S(C)(=O)=O)c2)cc1-c1nc(C(C)C)oc1-c1ccc2c(c1)OC(F)(F)O2
Recorded measurement: 7.20

Smiles entry: Cc1nc(C(F)(F)F)cn1-c1ccc(-c2cccc(S(C)(=O)=O)c2)cc1-n1nncc1-c1ccc(OC(F)(F)C(F)F)cc1
Recorded measurement: 6.29

Smiles entry: Cc1nc(-c2cc(-c3cc(F)c(CO)c(S(C)(=O)=O)c3)ccc2-n2cc(C(F)(F)F)nc2C)c(-c2ccc(OC(CF)CF)c(F)c2)o1
Recorded measurement: 6.93

# per-item lookup of pEC50; items listed below
1. Cc1nc(-c2cc(-c3cc(F)c(CO)c(S(C)(=O)=O)c3)ccc2-n2cc(C(F)(F)F)nc2C)c(-c2ccc(OCC(F)F)c(F)c2)o1
2. CCOc1ncc(-c2oc(C)nc2-c2cc(-c3ccc(C)c(S(C)(=O)=O)c3)ccc2-n2cc(C(F)(F)F)nc2C)cc1F
3. Cc1nc(C(F)(F)F)cn1-c1ccc(-c2cc(Cl)c(CO)c(S(C)(=O)=O)c2)cc1-n1nncc1-c1ccc(Cl)c(Cl)c1

Response line:
1: 6.93; 2: 6.55; 3: 6.64

# per-item lookup of pEC50; items listed below
1. Cc1nc(C(F)(F)F)cn1-c1ccc(-c2cc(Cl)c(CO)c(S(C)(=O)=O)c2)cc1-n1nncc1Cc1cccc(Cl)c1
2. Cc1nc(C(F)(F)F)cn1-c1ccc(-c2cccc(S(C)(=O)=O)c2)cc1-c1cnnn1-c1ccc(OC(F)(F)F)cc1
3. Cc1nc(-c2cc(-c3cc(F)c(CO)c(S(C)(=O)=O)c3)ccc2-n2cc(C(F)(F)F)nc2C)c(-c2ccc(C)c(F)c2)o1
4. Cc1nc(C(C)(F)F)cn1-c1ccc(-c2cccc(S(=O)(=O)N(C)C)c2)cc1-n1nncc1-c1ccc(OC(F)(F)F)cc1

Response line:
1. 5.99
2. 6.70
3. 7.35
4. 6.30

Prompt line: pEC50 lookup needed for Cc1nc(-c2cc(-c3cc(F)c(CO)c(S(C)(=O)=O)c3)ccc2-n2cc(C(F)(F)F)nc2C)c(-c2ccc(Cl)c(OC(F)F)c2)o1 , thanks.
Response line: 6.76

###

target: LXRβ (Homo sapiens, UniProt P55055); construct: Co-transfection expression plasmids, comprising full-length LXRα (pCMX-h LXRα[…] or LXRβ (pCMX-hLXRβ)); test: Co-transfection assay (LXRE luciferase reporter), LXRβ; details: CV-1 cells transfected with pCMX-hLXRβ and LXREx1-Tk-Luciferase; 20 hours incubation
Bucketed by reported EC50, buckets being 1: < 0.5 µM; 2: ≥ 0.5 µM and < 1 µM; 3: ≥ 1 µM

Please review the entries below; each comes with its answer.
Compound: Cc1nc(C(F)(F)F)cn1-c1ccc(-c2ccc(CO)c(S(C)(=O)=O)c2)cc1-c1oc(CCO)nc1-c1ccc(OC(F)(F)F)cc1 [Example 613]
Class name: 3
//
Compound: Cc1nc(C(F)(F)F)cn1-c1ccc(-c2cc(F)c(CO)c(S(C)(=O)=O)c2)cc1-n1nncc1Cc1ccc(Cl)cc1 [Example 113]
Class name: 2

Prompt line: Which category fits this record: Cc1nc(-c2cc(-c3cc(F)c(CO)c(S(C)(=O)=O)c3)ccc2-n2cc(C(C)O)nc2C)c(-c2ccc3c(c2)OC(F)(F)O3)o1 (single isomer, unassigned) [Example 515]
Response line: 3

Prompt line: What do you get for Cc1nc(-c2cc(-c3cc(F)c(CO)c(S(C)(=O)=O)c3)ccc2-n2cc(C(F)(F)F)nc2C)c(-c2cccnc2C)o1 [Example 395] ?
Response line: 3

Prompt line: What do you get for Cc1nc(C(C)(F)F)cn1-c1ccc(-c2cc(F)c(CO)c(S(C)(=O)=O)c2)cc1-c1ocnc1-c1ccc(OC(F)(F)F)cc1 [Example 356] ?
Response line: 2

Prompt line: What do you get for Cc1ccc(-c2oc(C)nc2-c2cc(-c3cc(F)c(CO)c(S(C)(=O)=O)c3)ccc2-n2cc(C(F)(F)F)nc2C)cc1 [Example 492] ?
Response line: 1

Prompt line: What do you get for Cc1nc(C(F)(F)F)cn1-c1ccc(-c2cccc(S(C)(=O)=O)c2)cc1-n1nncc1Cc1ccc(Cl)c(Cl)c1 [Example 115] ?
Response line: 2

Prompt line: What do you get for Cc1nc(C(F)(F)F)cn1-c1ccc(-c2cc(F)c(CO)c(S(C)(=O)=O)c2)cc1-n1nncc1-c1ccc2c(c1)OC(F)(F)O2 [Example 52] ?
Response line: 1

Prompt line: What do you get for Cc1nc(C(F)F)c(C)n1-c1ccc(-c2cc(F)c(CO)c(S(C)(=O)=O)c2)cc1-n1nncc1-c1ccc(OC(F)(F)F)cc1 [Example 233] ?
Response line: 3

Prompt line: What do you get for CCS(=O)(=O)c1cccc(-c2ccc(-n3cc(C(F)F)nc3C)c(-n3nncc3-c3ccc(OC(F)(F)F)cc3)c2)c1 [Example 157] ?
Response line: 3

Prompt line: What do you get for Cc1nc(-c2cc(-c3ccc(C)c(S(C)(=O)=O)c3)ccc2-n2cc(C(F)(F)F)nc2C)c(-c2ccc3c(c2)OC(F)(F)O3)o1 [Example 445] ?
Response line: 1

Prompt line: What do you get for Cc1nc(-c2cc(-c3cc(F)c(CO)c(S(C)(=O)=O)c3)ccc2-n2cc(C(F)(F)F)nc2C)c(-c2cccnc2C2CC2)o1 [Example 391] ?
Response line: 1

Prompt line: What do you get for Cc1nc(C(F)(F)F)cn1-c1ccc(-c2cccc(S(C)(=O)=O)c2)cc1-n1nncc1C(C)(C)c1ccc(Cl)cc1 [Example 222] ?
Response line: 3
